B1: tRNA (parent)
chain: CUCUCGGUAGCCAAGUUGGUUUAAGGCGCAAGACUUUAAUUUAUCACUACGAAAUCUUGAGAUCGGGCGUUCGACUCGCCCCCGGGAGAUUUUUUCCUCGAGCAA

- Variants of: B1
- assayOverview: nonsense suppression (GFP-seq) (ratio to wild type); higher = more function; SUP4oc tRNA, yeast GFP reporter sort-seq
Variants at the floor of the assay were thinned out.

{"columns": ["variantDesignation", "nonsense suppression"],
 "data": [
  ["G10U A30C U57C U63C", "≤ 0.026"],
  ["A13C U57A G66A", "≤ 0.026"],
  ["G7A G26U", "≤ 0.026"],
  ["C11A A60C", "≤ 0.026"],
  ["A14G G28U G78C", "≤ 0.026"],
  ["C11U G28A A33G", "≤ 0.026"],
  ["A74G C83G", "≤ 0.026"],
  ["C1A C3G U58A C68G", "≤ 0.026"],
  ["A13U A24G G26C G32C A89C", "≤ 0.026"],
  ["A9G U22A U35G", "≤ 0.026"],
  ["C11U C56G G73C G78A C79G", "≤ 0.026"],
  ["G19C C34U U71C C82G", "≤ 0.026"]
]}
